experiment: melting temperature; fluorescence melt of hairpins on a sequencing array, two-state fit, raised by 9.35 °C to match UV melts; conditions: sodium 0.088 M
quantity-name: Tm (°C)

[[record]]
sequence_entry = "GATCGATCTCTCGATC ((((((....))))))"
scale_unit = "°C"
data_value = 51.4

[[record]]
sequence_entry = "GTCACCGAAAGGTAGAC ((((((....))).)))"
scale_unit = "°C"
data_value = 51

[[record]]
sequence_entry = "GCGACCACGAAAGTGCGC (((..(((....))))))"
scale_unit = "°C"
data_value = 48.5


====

assay: melting temperature; fluorescence melt of hairpins on a sequencing array, two-state fit, raised by 9.35 °C to match UV melts; details: sodium 0.088 M
Classify: Condition met when Tm is strictly less than 50 °C; Condition not met when Tm is not.

[[record]]
sequence_entry = "GGCGCACCGAAAGGTGCC (((..(((....))))))"
category_label = "Condition met"

[[record]]
sequence_entry = "GTGACTCGAAAGAGGCAC (((.(((....))).)))"
category_label = "Condition not met"

[[record]]
sequence_entry = "GCGTTAACGAAAGTTCGC (((..(((....))))))"
category_label = "Condition met"

[[record]]
sequence_entry = "GGGACAACGAAAGTTCCC (((..(((....))))))"
category_label = "Condition met"

[[record]]
sequence_entry = "GGGTACGGAAACATACCC (((((.(....).)))))"
category_label = "Condition met"

[[record]]
sequence_entry = "GTGTCTGGAAACAGACAC (((((((....)))))))"
category_label = "Condition not met"

[[record]]
sequence_entry = "GGCGTTGGAAACAACACC ((.((((....)))).))"
category_label = "Condition met"

[[record]]
sequence_entry = "GGTCAACGAAAGTTACC (((.(((....))))))"
category_label = "Condition met"

[[record]]
sequence_entry = "CGCTACGGAAACGTTGCG (((.(((....))).)))"
category_label = "Condition not met"

[[record]]
sequence_entry = "GATCCTCTTGAGGATC ((((((....))))))"
category_label = "Condition not met"

[[record]]
sequence_entry = "GCGTTCGAACGC ((((....))))"
category_label = "Condition not met"

[[record]]
sequence_entry = "GGAGAGCGAAAGCTTTCC (((.(((....))).)))"
category_label = "Condition not met"

[[record]]
sequence_entry = "GTTTGGGGAAACCCAAGC (.(((((....))))).)"
category_label = "Condition met"

[[record]]
sequence_entry = "GCTACGACGAAAGTCAGC (((..(((....))))))"
category_label = "Condition met"

[[record]]
sequence_entry = "GTATCACGAAAGTGCTAC (((.(((....))).)))"
category_label = "Condition met"

[[record]]
sequence_entry = "GCGATTTATCGC ((((....))))"
category_label = "Condition not met"

[[record]]
sequence_entry = "GAGGGGGGAAACCCCCCC (.(((((....))))).)"
category_label = "Condition not met"

[[record]]
sequence_entry = "GGTTCTGGAAACGGAATC (.(((.(....).))).)"
category_label = "Condition met"

[[record]]
sequence_entry = "CGGGCGGAAACGCACCG ((((((....))).)))"
category_label = "Condition not met"

[[record]]
sequence_entry = "GTGATCGAAAGATGCCAC ((((((....)))..)))"
category_label = "Condition met"

[[record]]
sequence_entry = "GCAGTGCGAAAGCGTTGC (((..((....))..)))"
category_label = "Condition not met"

[[record]]
sequence_entry = "GCGGATGCCGC ((((...))))"
category_label = "Condition not met"

[[record]]
sequence_entry = "GCAGTACCGAAAGGTTGC (((..(((....))))))"
category_label = "Condition met"

[[record]]
sequence_entry = "GGGACCGAAAGGTTCCC ((((((....))).)))"
category_label = "Condition not met"

[[record]]
sequence_entry = "GCCGACGAAAGTCTGGC ((((((....))).)))"
category_label = "Condition not met"

[[record]]
sequence_entry = "GGAAGTCGAAAGACCTCC (((.(((....))).)))"
category_label = "Condition met"

[[record]]
sequence_entry = "GAGTACGGAAACGTACCC (.(((((....))))).)"
category_label = "Condition met"

[[record]]
sequence_entry = "GATGACGGAAACGTTATC (((.(((....))).)))"
category_label = "Condition met"

[[record]]
sequence_entry = "GAGCGTCCGAAAGGACTC (((..(((....))))))"
category_label = "Condition met"

[[record]]
sequence_entry = "GCGGGGCGAAAGCCGTGC ((..(((....)))..))"
category_label = "Condition not met"

[[record]]
sequence_entry = "GATCTCCCGTGAGATC ((((((....))))))"
category_label = "Condition not met"

[[record]]
sequence_entry = "GTGGAAACGAAAGTTCAC (((..(((....))))))"
category_label = "Condition met"

[[record]]
sequence_entry = "GGACGCGAAAGCGAATCC ((((((....)))..)))"
category_label = "Condition met"

[[record]]
sequence_entry = "GCCCATGGAAACATAGGC (((.(((....))).)))"
category_label = "Condition met"


====

assay: melting temperature; fluorescence melt of hairpins on a sequencing array, two-state fit, raised by 9.35 °C to match UV melts; conditions: sodium 0.088 M
quantity-name: Tm (°C)

[[record]]
sequence_entry = "GCGACGCGAAAGCTCCGC (((..((....))..)))"
scale_unit = "°C"
data_value = 50.6

[[record]]
sequence_entry = "GTCGAGACGAAAGTCGAC (((..(((....))))))"
scale_unit = "°C"
data_value = 51.4

[[record]]
sequence_entry = "ATAGCGAAAGCTAT (((((....)))))"
scale_unit = "°C"
data_value = 54

[[record]]
sequence_entry = "GTATTTGGAAACAAATGC (.(((((....))))).)"
scale_unit = "°C"
data_value = 39.9

[[record]]
sequence_entry = "GGAGTCGAAAGACCTTCC ((((((....)))..)))"
scale_unit = "°C"
data_value = 40.6

[[record]]
sequence_entry = "GAGCTCGGAAACGAGTTC ((.((((....)))).))"
scale_unit = "°C"
data_value = 53

[[record]]
sequence_entry = "GCGTAGCGAAAGCTCGC (((.(((....))))))"
scale_unit = "°C"
data_value = 63.3

[[record]]
sequence_entry = "GACCGAGGAAACTTGGTC ((((.((....)).))))"
scale_unit = "°C"
data_value = 50.1


====

test: folding enthalpy; higher = less favourable; fluorescence melt of hairpins on a sequencing array, two-state fit; details: sodium 0.088 M
quantity-name: folding enthalpy

[[record]]
sequence_entry = "GATCTGATATCAGATC ((((((....))))))"
data_value = "-40.1 kcal/mol"

[[record]]
sequence_entry = "GGGCTCCCGAAAGGGCCC (((..(((....))))))"
data_value = "-29.5 kcal/mol"

[[record]]
sequence_entry = "GTAGTTGGAAACAACCAC ((.((((....)))).))"
data_value = "-18.7 kcal/mol"

[[record]]
sequence_entry = "GACGGCGGAAACGCCACC (..((((....))))..)"
data_value = "-9.98 kcal/mol"

[[record]]
sequence_entry = "GACCGAGGAAACTCGACC (..((((....))))..)"
data_value = "-14.3 kcal/mol"

[[record]]
sequence_entry = "GGGTGTTCGAAAGAACCC (((..(((....))))))"
data_value = "-16.7 kcal/mol"

[[record]]
sequence_entry = "GACCTACCGAAAGGTGTC (((..(((....))))))"
data_value = "-18 kcal/mol"

[[record]]
sequence_entry = "CGTCGCGGAAACGCACG (((.(((....))))))"
data_value = "-19.4 kcal/mol"

[[record]]
sequence_entry = "GCGGAGCGAAAGCTTGGC ((..(((....)))..))"
data_value = "-13.5 kcal/mol"

[[record]]
sequence_entry = "GTACTCGCGAAAGCGTAC (((..(((....))))))"
data_value = "-11.1 kcal/mol"

[[record]]
sequence_entry = "GCTATGCGAAAGCACCGC ((..(((....)))..))"
data_value = "-8.22 kcal/mol"

[[record]]
sequence_entry = "GATCGTAACTACGATC ((((((....))))))"
data_value = "-41.6 kcal/mol"

[[record]]
sequence_entry = "GGGGGGGGAAACCTCCCC ((((.((....)).))))"
data_value = "-34 kcal/mol"

[[record]]
sequence_entry = "CGCACGGAAACGTCTGCG ((((((....)))..)))"
data_value = "-23.8 kcal/mol"

[[record]]
sequence_entry = "GGGCTCGAAAGAGTCCCC ((((((....)))..)))"
data_value = "-15.8 kcal/mol"

[[record]]
sequence_entry = "GATCGAAGGTTCGATC ((((((....))))))"
data_value = "-31.2 kcal/mol"

[[record]]
sequence_entry = "GATCCAAAGCTGGATC ((((((....))))))"
data_value = "-36.3 kcal/mol"

[[record]]
sequence_entry = "GGGTATCCGAAAGGACCC (((..(((....))))))"
data_value = "-18.6 kcal/mol"

[[record]]
sequence_entry = "GTCATCGAAAGATACGAC ((((((....)))..)))"
data_value = "-20.9 kcal/mol"

[[record]]
sequence_entry = "CGCTCGGAAACGACCGCG ((((((....)))..)))"
data_value = "-21.6 kcal/mol"

[[record]]
sequence_entry = "GGTAGAGAAATCTACC ((((((....))))))"
data_value = "-25.2 kcal/mol"

[[record]]
sequence_entry = "GCCCACGGAAACGCGGAC (.((.((....)).)).)"
data_value = "-18.4 kcal/mol"

[[record]]
sequence_entry = "GATCATCAATATGATC ((((((....))))))"
data_value = "-35 kcal/mol"

[[record]]
sequence_entry = "GCCGTACCGAAAGGTGGC (((..(((....))))))"
data_value = "-25.1 kcal/mol"

[[record]]
sequence_entry = "GATCTGGACTCAGATC ((((((....))))))"
data_value = "-46.3 kcal/mol"

[[record]]
sequence_entry = "ATCACGAAAGTGAT (((((....)))))"
data_value = "-25.6 kcal/mol"

[[record]]
sequence_entry = "GATCACTCTGGTGATC ((((((....))))))"
data_value = "-39.8 kcal/mol"

[[record]]
sequence_entry = "GCGTGTCGAAAGACCGC (((.(((....))))))"
data_value = "-33 kcal/mol"

[[record]]
sequence_entry = "GTGCCGACGAAAGTCCAC (((..(((....))))))"
data_value = "-8.42 kcal/mol"

[[record]]
sequence_entry = "GCTATACGAAAGTACAGC (((.(((....))).)))"
data_value = "-30.2 kcal/mol"

[[record]]
sequence_entry = "GCCGTACGAAAGTAAGGC (((.(((....))).)))"
data_value = "-36.6 kcal/mol"

[[record]]
sequence_entry = "GGCTGGGGAAACTCAGCC (((((.(....).)))))"
data_value = "-38.7 kcal/mol"

[[record]]
sequence_entry = "GGGTTAGAAATAACCC ((((((....))))))"
data_value = "-36.4 kcal/mol"

[[record]]
sequence_entry = "GAGCTCGGAAACAAGCTC (((((.(....).)))))"
data_value = "-30 kcal/mol"

[[record]]
sequence_entry = "CGCGGAAGCCTCCGCG ((((((....))))))"
data_value = "-31.3 kcal/mol"

[[record]]
sequence_entry = "GAAACCGAAAGGTCCTTC ((((((....)))..)))"
data_value = "-14.6 kcal/mol"

[[record]]
sequence_entry = "GTTAACCGAAAGGTGAAC (((.(((....))).)))"
data_value = "-27.7 kcal/mol"

[[record]]
sequence_entry = "GAGTAACCGAAAGGTCTC (((..(((....))))))"
data_value = "-16.7 kcal/mol"

[[record]]
sequence_entry = "GATCGAATGTCGATC ((((((...))))))"
data_value = "-31.5 kcal/mol"

